Here's what we have: IC50 numbers for wild type FGFR-4 (Homo sapiens).

Past entries and their recorded results:
[[record]]
molecule = "C=CC(=O)Nc1cccc(C)c1Nc1ncc2cc(-c3c(Cl)cccc3Cl)c(=O)n(C)c2n1 [COMPOUND 22]"
result = "10 to 100 nM"

[[record]]
molecule = "C=CC(=O)N(C)c1ncc2c(n1)N(C)C(=O)N(c1c(Cl)c(OC)cc(OC)c1Cl)C2 [COMPOUND 14]"
result = "10 to 100 nM"

[[record]]
molecule = "C=CC(=O)Nc1cccc(C)c1Nc1ncc(C#Cc2c(Cl)c(OC)cc(OC)c2Cl)cn1 [COMPOUND 24]"
result = "10 to 100 nM"

[[record]]
molecule = "C=CC(=O)Nc1ccccc1Nc1cc2nc(NC(=O)NC(C)(C)C)c(-c3cc(OC)cc(OC)c3)cc2cn1 [COMPOUND 44]"
result = "100 to 1000 nM"

[[record]]
molecule = "C=CC(=O)Nc1ccc(F)c(C)c1Nc1ncc2cc(-c3c(Cl)c(OC)cc(OC)c3Cl)ccc2n1 [COMPOUND 33]"
result = "10 to 100 nM"


Per the reported wild type FGFR-4 (Homo sapiens) data, C=CC(=O)Nc1cccc(C)c1Nc1ncc2cc(-c3cc(C(N)=O)ccc3F)ccc2n1 [COMPOUND 9] has IC50 of 100 to 1000 nM
